Record form. Attribute: log10 koff. Fill in for each entry.
ASSAY TARGET: T1, Cynomolgus TCR(AEA41865/AEA41866)-zipper protein (cynomolgus monkey)
T1 construct: also called cyTCR-zipper protein; cynoTCR zipper
T1 TCR alpha: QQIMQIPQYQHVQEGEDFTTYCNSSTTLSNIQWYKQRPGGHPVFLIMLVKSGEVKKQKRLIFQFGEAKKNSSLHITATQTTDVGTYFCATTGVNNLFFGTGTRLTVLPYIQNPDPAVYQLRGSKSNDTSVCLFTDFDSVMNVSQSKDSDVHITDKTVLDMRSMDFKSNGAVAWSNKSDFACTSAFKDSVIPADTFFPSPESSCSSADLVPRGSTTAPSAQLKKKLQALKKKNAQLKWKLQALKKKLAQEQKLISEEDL
T1 TCR beta: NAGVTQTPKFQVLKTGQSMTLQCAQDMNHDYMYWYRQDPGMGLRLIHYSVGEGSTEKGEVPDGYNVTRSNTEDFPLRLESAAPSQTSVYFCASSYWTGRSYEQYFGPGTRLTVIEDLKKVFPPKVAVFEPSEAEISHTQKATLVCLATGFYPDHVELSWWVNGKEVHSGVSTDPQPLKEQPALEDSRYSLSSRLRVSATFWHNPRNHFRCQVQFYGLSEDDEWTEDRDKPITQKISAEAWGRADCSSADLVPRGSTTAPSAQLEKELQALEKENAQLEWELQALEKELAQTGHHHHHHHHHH
EXPERIMENT NOTES: SPR ProteOn off-rate screen
Please be aware that the numbers have been log10-transformed from koff in s⁻¹.

**Q:** log10 koff lookup needed for T017000370 (VHH) VHH: EVQLVESGGGVVQPGGSLRLSCVASGAVHQINFYGWYRQAPGKEREKVAHISIGDQTDYADSAKGRFTISRDESKNMVYLQMNSLRPEDTALYFCRAMSRIWPYDYWGQGTLVTVSS , thanks.
**A:** -2.67

**Q:** Any idea what log10 koff was measured for T017000423 (VHH) VHH: EVQLVESGGGVVQPGGSLRLSCVASGSVHQINFLGWYRQAPGKEREKVAHISIGDQTDYADSAKGRFTISRDESKNMVYLQMNSLRPEDTALYFCRAMSRIWPYDYWGQGTLVTVSS ?
**A:** -2.74

**Q:** Param item = T017000382 (VHH) VHH: EVQLVESGGGVVQPGGSLRLSCVASGSVHKINFYGWYRQAPGKEREKVAHISIGDQTDYADSAKGRFTISRDESKNMVYLQMNSLRPEDTALYFCRAMSRIYPYDWWGQGTLVTVSS ; retrieve measured log10 koff.
**A:** -2.54

**Q:** Request the reported log10 koff associated with T017000610 (VHH) VHH: EVQLVESGGGVVQPGGSLRLSCVASGDVHQINFLGWYRQAPGKEREKVAHISIGDQTDYADSAKGRFTISRDESKNMVYLQMNSLRPEDTALYFCRALSKIYPYDYWGQGTLVTVSS
**A:** -3.07

**Q:** I'd like to know its log10 koff. The binder in question is T017000367 (VHH) VHH: EVQLVESGGGVVQPGGSLRLSCVASGYVHKINFLGWYRQAPGKEREKVAHISIGDQTDYADSAKGRFTISRDESKNMVYLQMNSLRPEDTALYFCRAMSRIWPYDYWGQGTLVTVSS
**A:** -2.96

**Q:** Using the record for T017000357 (VHH) VHH: EVQLVESGGGVVQPGGSLRLSCVASGYVHQLNFYGWYRQAPGKEREKVAHISIGDQTDYADSAKGRFTISRDESKNMVYLQMNSLRPEDTALYFCRAMSRIWPYDYWGQGTLVTVSS , report its log10 koff.
**A:** -2.60

**Q:** // query log10 koff value for entry T017000415 (VHH) VHH: EVQLVESGGGVVQPGGSLRLSCVASWDVHQINFYGWYRQAPGKEREKVAHISIGDQTDYADSAKGRFTISRDESKNMVYLQMNSLRPEDTALYFCRAMSRIWPYDYWGQGTLVTVSS
**A:** -3.04

**Q:** Look up log10 koff: T017000418 (VHH) VHH: EVQLVESGGGVVQPGGSLRLSCVASGAVHKLNFYGWYRQAPGKEREKVAHISIGDQTDYADSAKGRFTISRDESKNMVYLQMNSLRPEDTALYFCRAMSRIYPYDYWGQGTLVTVSS
**A:** -2.73

**Q:** # get_value(readout='log10 koff', item= T017000742 (VHH) VHH: EVQLVESGGGVVQPGGSLRLSCVASGYVHQINFYGWYRQAPGKEREKVAHISIGDQTDYADSAKGRFTISRDESKNMVYLQMNSLRPEDTALYFCRAMSRIWPYDWWGQGTLVTVSS )
**A:** -2.41

**Q:** Endpoint output: log10 koff of T017000750 (VHH) VHH: EVQLVESGGGVVQPGGSLRLSCVASYAVHQINFYGWYRQAPGKEREKVAHISIGDQTDYADSAKGRFTISRDESKNMVYLQMNSLRPEDTALYFCRAMSRIWPYDYWGQGTLVTVSS . Value?
**A:** -2.43

**Q:** Sample T017000473 (VHH) VHH: EVQLVESGGGVVQPGGSLRLSCVASGYVHQINFYGWYRQAPGKEREKVAHISIGDQTDYADSAKGRFTISRDESKNMVYLQMNSLRPEDTALYFCRAMSRIYPYDYWGQGTLVTVSS — what was its log10 koff?
**A:** -2.62

**Q:** Please give the measured log10 koff for this binder: T017000740 (VHH) VHH: EVQLVESGGGVVQPGGSLRLSCVASWDVHQLNFYGWYRQAPGKEREKVAHISIGDQTDYADSAKGRFTISRDESKNMVYLQMNSLRPEDTALYFCRAMSKIYPYDYWGQGTLVTVSS
**A:** -3.41

**Q:** Dear colleague, I am looking for the recorded log10 koff of the following binder: T017000383 (VHH) VHH: EVQLVESGGGVVQPGGSLRLSCVASGDVHQINFLGWYRQAPGKEREKVAHISIGDQTDYADSAKGRFTISRDESKNMVYLQMNSLRPEDTALYFCRAMSRIWPYDYWGQGTLVTVSS
**A:** -2.67

**Q:** Quick one: log10 koff of T017000440 (VHH) VHH: EVQLVESGGGVVQPGGSLRLSCVASWDVHKLNFYGWYRQAPGKEREKVAHISIGDQTDYADSAKGRFTISRDESKNMVYLQMNSLRPEDTALYFCRAMSKIWPYDYWGQGTLVTVSS ?
**A:** -3.46

**Q:** I am curious: what log10 koff value has been reported for T017000450 (VHH) VHH: EVQLVESGGGVVQPGGSLRLSCVASGYVHQINFLGWYRQAPGKEREKVAHISIGDQTDYADSAKGRFTISRDESKNMVYLQMNSLRPEDTALYFCRAMSRIWPYDYWGQGTLVTVSS ?
**A:** -2.77
